Task for the reader: assign each of the following compounds its reported TGI.
# Test system: NCI-H226 lung
# method: NCI tumour cell line growth inhibition, 48 h
Value expressed in µM; do not type the unit.

Which measured TGI value corresponds to CC1OC(OC2C(O)COC(OC3C(C)OC(OC4C(OC(=O)[C@]56CCC(C)(C)C[C@@H]5C5=CCC7[C@@]8(C)C[C@H](O)[C@H](OC9OC(CO)C(O)C(O)C9O)[C@@](C)(CO)[C@@H]8CC[C@@]7(C)[C@]5(C)CC6)OCC(O)C4O)C(O)C3OC3OCC(O)(CO)C3O)C2O)C(O)C(O)C1O (stereo partly specified) ?
43

Then what about the compound NCc1ccccc1-c1c2nc(c(-c3ccccc3CN)c3ccc([nH]3)c(-c3ccccc3CN)c3nc(c(-c4ccccc4CN)c4ccc1[nH]4)C=C3)C=C2 ?
33.4

Then what about the compound CCn1c2ccccc2c2cc(NC(=O)Nc3ccc([N+](=O)[O-])cc3C)ccc21 ?
29.2

Every entry's value here was drawn from PubChem BioAssay (NCI).
